Listing: furin cleavage Z-score of selected sequences
- targetEntity: furin, P09958;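 further: purified furin at 1:10 enzyme:substrate in 50 mM HEPES pH 7.5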
- Sequence (P09958 whole entry): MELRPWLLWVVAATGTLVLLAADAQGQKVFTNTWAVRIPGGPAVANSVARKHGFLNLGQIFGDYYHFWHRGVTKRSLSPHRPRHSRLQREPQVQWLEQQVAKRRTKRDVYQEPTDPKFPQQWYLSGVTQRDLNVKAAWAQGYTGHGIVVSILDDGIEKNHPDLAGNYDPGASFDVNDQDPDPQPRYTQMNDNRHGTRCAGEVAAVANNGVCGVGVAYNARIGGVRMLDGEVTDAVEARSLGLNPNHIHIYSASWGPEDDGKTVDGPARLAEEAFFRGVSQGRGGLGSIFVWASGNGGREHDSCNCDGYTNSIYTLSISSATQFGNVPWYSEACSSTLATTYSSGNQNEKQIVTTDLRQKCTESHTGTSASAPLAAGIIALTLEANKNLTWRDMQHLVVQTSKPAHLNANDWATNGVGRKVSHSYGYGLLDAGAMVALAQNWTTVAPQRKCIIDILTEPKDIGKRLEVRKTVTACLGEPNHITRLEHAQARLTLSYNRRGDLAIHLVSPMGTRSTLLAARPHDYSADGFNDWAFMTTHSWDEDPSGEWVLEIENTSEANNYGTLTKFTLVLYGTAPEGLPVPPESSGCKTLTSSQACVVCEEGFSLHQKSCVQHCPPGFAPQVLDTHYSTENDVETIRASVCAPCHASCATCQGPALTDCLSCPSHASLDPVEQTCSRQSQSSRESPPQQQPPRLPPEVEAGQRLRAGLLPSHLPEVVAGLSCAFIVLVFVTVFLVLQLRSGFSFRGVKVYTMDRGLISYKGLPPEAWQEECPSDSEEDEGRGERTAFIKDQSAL
- experimentSummary: furin cleavage Z-score vs untreated control; higher = more cleavage, active = 3.5 or more, inactive = 1 or less, 8 variable residues between constant flanks
- conditionDetails: 15 min
This is one part of the list. The true hit rate is not given.
measure: furin cleavage Z-score

1) CASEMEECSQAGNASASA [HC1797]
-0.566
2) CAHVQRQRREAGNASASA [FS-441]
12.8
3) CAAIGRSRRVAGNASASA [FS-114]
1.95
4) CAYKSRTKRSAGNASASA [FS-1581]
13.7
5) CAHRGVTKRSAGNASASA [FS-1593]
7.15
6) CATNSRGENCAGNASASA [HC1504]
0.267
7) CALEMEECSQAGNASASA [HC1785]
0.777
8) CAYSPGQRVEAGNASASA [HC1468]
1.68
9) CALSARRFRVAGNASASA [FS-1371]
-0.766
10) CARKMRDDERAGNASASA [FS-1904]
-0.39
11) CARSVRKVIVAGNASASA [FS-3099]
-1.26
12) CARPQRLIDHAGNASASA [FS-3020]
-0.141
13) CARDGRDGTPAGNASASA [FS-2000]
-0.249
14) CAAIIPDREVAGNASASA [HC1007]
-0.083
15) CAFRNRNQRIAGNASASA [FS-235]
-1.55
16) CAQKKVTFDRAGNASASA [HC1395]
-0.119
17) CARMRRALVFAGNASASA [FS-3001]
4.35
18) CAMMECSQHLAGNASASA [HC1686]
0.731
19) CALVGAPLGGAGNASASA [HC230]
0.0326
20) CARMRRPPGGAGNASASA [FS-2496]
-0.697
21) CAFRVRSRRWAGNASASA [FS-328]
9.61
22) CAGRSRTKRSAGNASASA [FS-1332]
9.78
23) CAGRSRPDRSAGNASASA [FS-533]
7.05
24) CATPIAAAGQAGNASASA [HC1639]
-1.26
25) CAQKDRARRPAGNASASA [FS-1605]
-1.09
26) CAINGLPVSAAGNASASA [HC659]
-0.464
27) CAPCCRQRREAGNASASA [FS-471]
8.7
28) CALYDVVTKLAGNASASA [HC1458]
0.0294
29) CARKKRWAERAGNASASA [FS-3257]
10.8
30) CAEVEVPCHRAGNASASA [HC2450]
0.836

The measurements presented in this section are drawn from the supplement of paper PMC3545927.
